pIC50: −log10 of the molar value.
Below are pIC50 values for human 20 S proteasome (Homo sapiens, UniProt P28074) collected from several publications.

Fill blank: measured pIC50 of the compound COCc1cccc(CC(=O)N[C@@H](Cc2coc3ccccc23)B(O)O)c1 is ____.
6.30 to 7.30

Looking for the measured pIC50 of CCc1cccc(C[C@H](NC(=O)CCC(=O)c2ccccc2)B(O)O)c1 , can you help?
< 5.30

I am curious: what pIC50 value has been reported for COc1ccc(C[C@H](NC(=O)[C@H](C)NC(=O)CN2CCOCC2)C(=O)N[C@@H](CC2=C(C)CCC2)C(=O)[C@@]2(C)CO2)cc1 ?
5.04

Consider the compound CN(C)C(=O)c1ccccc1CC(=O)N[C@@H](Cc1coc2ccccc12)B(O)O and give its measured pIC50.
5.30 to 6.30

Which pIC50 value is on record for CO[C@@H](C(=O)N[C@@H](Cc1coc2ccccc12)B(O)O)c1ccccc1 ?
5.30 to 6.30

Entry O=C(Cc1ccccc1C(=O)N1CCOCC1)N[C@@H](Cc1coc2ccccc12)B(O)O has what pIC50?
5.30 to 6.30

Request the reported pIC50 associated with C[C@H](NC(=O)CN1CCOCC1)C(=O)N[C@@H](Cc1ccc2c(c1)OCO2)C(=O)N[C@@H](CC1CCCC1)C(=O)[C@@]1(C)CO1
6.33

What value of pIC50 has been reported for the following compound? COc1ccc(CC(=O)N[C@H](C[C@H]2COc3ccccc32)B(O)O)cc1
< 5.30

Quick one: pIC50 of COc1ccc(C[C@H](NC(=O)[C@H](C)NC(=O)CN2CCOCC2)C(=O)N[C@@H](C[C@H]2CC[C@@H](O)CC2)C(=O)[C@@]2(C)CO2)cc1 ?
< 5.00

Report pIC50 for O=C(Cc1ccccc1OCCCO)N[C@H](Cc1coc2ccccc12)B(O)O please.
< 5.30

I'd like to know its pIC50. The compound in question is O=C(Cc1ccc(-c2ccccc2)cc1)N[C@H](Cc1coc2ccccc12)B(O)O
5.30 to 6.30

Look at this compound and give its reported pIC50. O=C(COc1ccccc1)N[C@@H](Cc1ccccc1)B(O)O
6.30 to 7.30

Please give the measured pIC50 for this compound: COc1ccc(C[C@H](NC(=O)CCc2noc(-c3ccccc3)n2)B(O)O)cc1C(F)(F)F
5.30 to 6.30

What does the record list as pIC50 for O=C(Cc1ccccc1OCCCO)N[C@@H](Cc1coc2ccccc12)B(O)O ?
5.30 to 6.30

Name the recorded pIC50 for C[C@H](NC(=O)CN1CCOCC1)C(=O)N[C@@H](Cc1coc2ccccc12)C(=O)N[C@@H](CC1CCCC1)C(=O)[C@@]1(C)CO1 .
6.30
